ASSAY EXPLANATION: Human HepG2 cell viability assay in 384 well format
Assay type: toxicity, cell-based
Design: dose 125 nL, time 70.5 hour; concentration not given beside the values
CONDITION: HepG2 cells, read-out: Inhibition
Some compounds, each annotated with its measured cytotoxicity at 70.5 h.
Use % as the unit, but write only the number.

# count of solved cases: 5
COMPOUND: O=C1CN(C(=O)c2cccc(C(F)(F)F)c2)CC(O)CN1CC1CC1 (stereo not given)
OBSERVED PROPERTY: cytotoxicity at 70.5 h
REPORTED VALUE: 20.9
//
COMPOUND: CCCN(Cc1cccc(OCCO)c1)Cc1ccccc1OC
OBSERVED PROPERTY: cytotoxicity at 70.5 h
REPORTED VALUE: 5.31
//
COMPOUND: CN1C(=O)[C@H]2CC[C@@H]1CN(C(=O)c1csc(Cc3ccccc3)n1)C2
OBSERVED PROPERTY: cytotoxicity at 70.5 h
REPORTED VALUE: -11.4
//
COMPOUND: N#Cc1ccc(OCCN2CCc3c(ncn3C3CC3)C2)cc1
OBSERVED PROPERTY: cytotoxicity at 70.5 h
REPORTED VALUE: 8.16
//
COMPOUND: CN(CC(N)=O)S(=O)(=O)c1ccc(F)cc1Cl
OBSERVED PROPERTY: cytotoxicity at 70.5 h
REPORTED VALUE: -11.4

Now turn to the next compound.
Entry under review: "CNC(=O)CN1CCN(C(=O)Nc2ccc(C)s2)CC1" . Reported cytotoxicity at 70.5 h?
-1.2

###

ASSAY EXPLANATION: Human HepG2 cell viability assay in 384 well format
Assay type: toxicity, cell-based
Parameters: dose 125 nL, time 70.5 hour; concentration not given beside the values
CONDITION: HepG2 cells, read-out: Inhibition
OBSERVED PROPERTY: cytotoxicity at 70.5 h (%)
Numbers only here, please. The scale is %.

Reference set (5 entries):
COMPOUND: COCC(=O)N1CCN2C(=O)OC[C@H]2C1
REPORTED VALUE: 3.16

COMPOUND: O=C(C1CCC1)N1CCc2onc(Cn3cccn3)c2C1
REPORTED VALUE: 17.9

COMPOUND: Cc1cccc(N2CCC3(CCN(Cc4ccccn4)CC3)CC2)n1
REPORTED VALUE: -9.07

COMPOUND: CNC(=O)C1CCCCN1C(=O)c1csc(-c2ccc(C)cc2)n1 (stereo not given)
REPORTED VALUE: -9.54

COMPOUND: c1csc(CN2CCc3nc(N4CCOCC4)nc(NC4CC4)c3C2)n1
REPORTED VALUE: 17

# cytotoxicity at 70.5 h lookup, item "CCN1CCn2c(-c3cccc(F)c3)cnc2C12CCN(C(C)=O)CC2"
2.55

Need cytotoxicity at 70.5 h of "Cc1nonc1CN(C)c1nc(-c2cccnc2)nc2c1CCNC2" , thanks.
0.678

Dear colleague, I am looking for the recorded cytotoxicity at 70.5 h of the following compound: "CCOc1ccc(CNCc2ccc(C(=O)NC)cc2)cc1OCC"
-7.21

Given "Cc1nc(-c2ccc(S(=O)(=O)N3CCCCC3)cc2)co1" , state its recorded cytotoxicity at 70.5 h.
-8.94

Any idea what cytotoxicity at 70.5 h was measured for OC1(CNCCc2nc(Cc3ccccc3)no2)CNCCOC1 (stereo not given) ?
0.264

Looking for the measured cytotoxicity at 70.5 h of COc1cc(CN2CCCC2c2cccc(F)c2)cc(OC)c1OC (stereo not given) , can you help?
-11.4

cytotoxicity at 70.5 h for COc1ccc(CNC(=O)C(NC(=O)Cc2ccccc2)C(C)C)cn1 (stereo not given) ?
30.6

Consider the compound COC(=O)C1CN(Cc2ccccc2C(C)(C)C#N)CCO1 (stereo not given) and give its measured cytotoxicity at 70.5 h.
-5.04

Fill blank: measured cytotoxicity at 70.5 h of the compound O=C(O)c1cccc(CN2CCCC(c3ccn[nH]3)C2)c1 (stereo not given) is ____.
-4.41

GET /values?readout=cytotoxicity at 70.5 h&item= "CCc1ccc(CNc2cc(-c3ccoc3C)nn2CCO)o1"
-18.9

Given NC(=O)CN1CCCC(Cc2ccc(N3CCOCC3)nn2)C1 (stereo not given) , state its recorded cytotoxicity at 70.5 h.
-0.993

Which cytotoxicity at 70.5 h reading was recorded for the compound "Cn1cc(CCNC(=O)C2(c3cccc(Cl)c3)CC2)cn1" ?
-18.4

What does the data say about its cytotoxicity at 70.5 h? Entry: CN1CCCC(CCC(=O)N2CCc3onc(C(=O)N(C)C)c3C2)C1 (stereo not given)
-1.71

For the compound "Cc1cccc2cc(C(=O)N3CCSCC3)n(C)c12" , what cytotoxicity at 70.5 h is on record?
-3.37

Query (compound): COc1ccc(CC(C)(O)CNC(=O)Cc2cccs2)cc1 (stereo not given) ; field requested: cytotoxicity at 70.5 h
11.8
